tested on: U251 CNS; experiment: NCI tumour cell line growth inhibition, 48 h
Listed here are compounds together with their documented log10(TGI).
Note the log scale: values are log10 of TGI expressed in µM.

Bench note: what log10(TGI) did [Br][Pb]([c]1ccccc1)([c]1ccccc1)[c]1ccccc1 show?
-0.51

Bench note: what log10(TGI) did CCn1cc(C(=O)O)c(=O)c2cc(F)c(N3CCN(S(=O)(=O)c4ccc(Cl)cc4Cl)CC3)cc21 show?
1.17

Bench note: what log10(TGI) did NCCCN(CCCCN(CCCN)CCCc1ccccc1)CCCc1ccccc1 show?
0.62

Bench note: what log10(TGI) did Clc1ccc2c(NCCNc3nc(N4CCOCC4)nc4ccccc34)ccnc2c1 show?
0.53

Bench note: what log10(TGI) did CC(C)c1ccc(O)c(Cc2cc(C(C)C)cc(Cc3cc(C(C)C)ccc3O)c2O)c1 show?
0.50

----------
test system: NCI-H460 lung; experiment: NCI tumour cell line growth inhibition, 48 h
assayMetric: TGI

INSERT INTO assay_data (compound, assaymetric, assayvalue) VALUES
  ('O=c1c(I)c[nH]cc1I', 'TGI', '> 100 µM');

Request body: readout TGI, system NCI-H460 lung, query O=C(/C=C/c1ccc(OCc2ccccc2)cc1)NCc1ccc(C(=O)NCCc2ccccc2)cc1 . Return the value.
> 100 µM

Request body: readout TGI, system NCI-H460 lung, query CC(C)(Oc1ccc(-c2cccc3ccccc23)cc1)C(=O)O . Return the value.
> 100 µM

Request body: readout TGI, system NCI-H460 lung, query CCOC(=O)N1c2ccccc2C(C)=CC(C)C1C (stereo not drawn) . Return the value.
> 100 µM

Request body: readout TGI, system NCI-H460 lung, query CCn1cc(C(=O)O)c(=O)c2cc(F)c(N3CCN(S(=O)(=O)c4ccc(Cl)cc4Cl)CC3)cc21 . Return the value.
15.9 µM

----------
test system: 786-0 renal; assay: NCI tumour cell line growth inhibition, 48 h
assayMetric: TGI (µM)
Give the quantity in µM, number only.

INSERT INTO assay_data (substancesmiles, assaymetric, assayvalue) VALUES
  ('COc1cc(N=Nc2cc(Cc3ccc(N(C)C)cc3)c(N)cc2N(C)C)c2ncccc2c1', 'TGI', 2.25);

For the next question, use this compound.
Bench note: what TGI did Cc1cc(N2CCC(N3CCCC3)CC2)nc(/N=C(\N)Nc2ccc(Cl)c(Cl)c2)n1 show?
3.41

----------
tested on: SR leukemia; assay: NCI tumour cell line growth inhibition, 48 h
assayMetric: TGI

Guide cases for TGI, answers given:
INSERT INTO assay_data (compound, assaymetric, assayvalue) VALUES
  ('COC(=O)[C@@]12OC[C@]34[C@H]([C@@H](O)[C@@H]1O)[C@@]1(C)CC(=O)C(O)=C(C)[C@@H]1C[C@H]3OC(=O)[C@H](OC(=O)/C=C(\C)C(C)C)[C@@H]24', 'TGI', '0.0369 µM'),
  ('CC(C)(C)OC(=O)Cn1ncn(NC(=O)Cc2ccccc2)c1=S', 'TGI', '> 10 µM'),
  ('O=C1c2cc3c(cc2NC(c2ccccc2F)C1O)OCO3 (stereo not drawn)', 'TGI', '> 37.9 µM');

Bench note: what TGI did CCCC1C[C@H]2CCCCN2[C@H]2CCCN12 (stereo partly drawn) show?
> 64 µM

Bench note: what TGI did CCOC(=O)C(O)(CC1=NC(C(=O)OC)(C(=O)OC)C(c2cccc(C=O)c2)O1)C(=O)OCC (stereo not drawn) show?
> 100 µM

Bench note: what TGI did CSc1cc(Cl)c(C)cc1S(=O)(=O)NC(=O)NNc1ccc(C)cc1 show?
> 100 µM

Bench note: what TGI did CC1CC(=O)N(N(C)C)C2(C#N)C(=O)N=C(N)C12C#N (stereo not drawn) show?
> 100 µM

Bench note: what TGI did COC1C(OC(=O)c2ccc(C)[nH]2)C(O)C(Oc2ccc3c(O)c(NC(=O)c4ccc(O)c(CC=C(C)C)c4)c(=O)oc3c2Cl)OC1(C)C (stereo not drawn) show?
56.9 µM

----------
Record type: GI50 measurement. Applies to: MDA-MB-435

INSERT INTO assay_data (substancesmiles, assayvalue) VALUES
  ('COc1ccc2nc3ccccc3c(NCCNCCO)c2c1', '474 nM'),
  ('Cc1ccc(S(=O)(=O)OC[C@@]2(C)CC[C@]3(C)CC[C@]4(C)C(=C3C2)C=C[C@@H]2[C@@]3(C)CCCNC(C)(C)[C@@H]3CC[C@]24C)cc1', '1640 nM');

Bench note: what GI50 did Cc1ccc(-c2nc(NCCOCCOCCN)nc(N3CCN(c4ccccn4)CC3)n2)cc1 show?
10500 nM

Bench note: what GI50 did Cc1cc(N2CCC(N3CCCC3)CC2)nc(/N=C(\N)Nc2ccc(Cl)c(Cl)c2)n1 show?
1740 nM

Bench note: what GI50 did CC(=O)ON(OCc1ccc2ccccc2c1)C(C)=O show?
> 100000 nM

----------
Listed here are compounds together with their documented log10(TGI).
test system: HOP-92 NSCLC; assay: NCI tumour cell line growth inhibition, 48 h
Note the log scale: values are log10 of TGI expressed in µM.

Guide cases for log10(TGI), answers given:
INSERT INTO results (compound, assayvalue) VALUES
  ('C[C@]12CC[C@H]3[C@@H](CC=C4C[C@@H](O)CC[C@@]43C)[C@@H]1C/C(=C\c1cccnc1)[C@@H]2O', 1.78),
  ('COc1cc2c(c(OC)c1OC)-c1cc(I)c(O)cc1[C@@H](NC(C)=O)CC2', 1.04),
  ('COc1ccc2nc3ccccc3c(NCCNCCO)c2c1', 0.63),
  ('CCc1ccc2c(c1)C(=O)c1c-2n(CCCN)c(=O)c2cc(OC)c(OC)cc12', 0.43),
  ('CC(C)c1ccc(O)c(Cc2cc(C(C)C)cc(Cc3cc(C(C)C)ccc3O)c2O)c1', 0.52);

Bench note: what log10(TGI) did NCCCN(CCCCN(CCCN)CCCc1ccccc1)CCCc1ccccc1 show?
1.38

Bench note: what log10(TGI) did O=C1/C(=C/c2ccc(Cl)cc2)CCC1CNc1ccc(Cl)cc1 (configuration not stated) show?
1.70

Bench note: what log10(TGI) did O=C(Nc1cccc(-n2ccc3c(NC(=O)c4ccccc4)ncnc32)c1)Nc1ccc(Cl)c(C(F)(F)F)c1 show?
0.63

Bench note: what log10(TGI) did COc1ccc(/C=C/C(=N\NC(=O)c2ccccc2)c2sc(Nc3ccc([N+](=O)[O-])cc3)nc2C)cc1OC show?
0.81

Bench note: what log10(TGI) did Nc1nc(SCc2ccccc2CCl)c2[nH]cnc2n1 show?
1.83

----------
tested on: MOLT-4 leukemia; test: NCI tumour cell line growth inhibition, 48 h; in the data active = GI50 below about 0.43 µM; inactive = the rest
Form entry, call: pick from active, inactive

Previously resolved entries follow.
INSERT INTO measurements (compound, experimentaltarget, category) VALUES
  ('Nc1ncn([C@H]2CC(O)[C@@H](CO)S2)c(=O)n1 (some centres undefined)', 'MOLT-4 leukemia', 'inactive'),
  ('CC(=O)c1cc2c(N)c(C(=O)Nc3cccc4ccccc34)sc2nc1C', 'MOLT-4 leukemia', 'inactive'),
  ('CCCCNc1ncnc2c1cnn2-c1ccccc1', 'MOLT-4 leukemia', 'inactive'),
  ('CC(=O)ON(OCc1ccc2ccccc2c1)C(C)=O', 'MOLT-4 leukemia', 'inactive'),
  ('O=c1c(I)c[nH]cc1I', 'MOLT-4 leukemia', 'inactive'),
  ('COc1cccc(C2CC(=O)Nc3c2c(C)nn3-c2nc3ccccc3[nH]2)c1OC (centres undefined)', 'MOLT-4 leukemia', 'active');

Test call for this compound, please: CCN(CC)c1ccc(/C=N/NC(=O)Cc2ccc(Nc3ccnc(C(F)(F)F)c3)cc2)c(O)c1
active

Test call for this compound, please: CCN(CC)CCOC(COc1cc(C)cc(C)c1)COc1cc(C)cc(C)c1
inactive

Test call for this compound, please: CN1C2C=CC(=O)C1C1C(=O)N(c3ccccc3)C(=O)C12 (centres undefined)
inactive

Test call for this compound, please: COc1cc2c(c(OC)c1OC)-c1cc(I)c(O)cc1[C@@H](NC(C)=O)CC2
active

Test call for this compound, please: CCn1cc(C(=O)O)c(=O)c2cc(F)c(N3CCN(S(=O)(=O)c4ccc(Cl)cc4Cl)CC3)cc21
inactive

Test call for this compound, please: COc1cc2ncn(-c3cc(OCc4ccccc4C(F)(F)F)c(C(N)=O)s3)c2cc1OC
active

Test call for this compound, please: CC[C@H](C)[C@H](NC(=O)C12C3C4C1C1C2C3C41NC)C(=O)N(C)[C@H](C[C@@H](OC(C)=O)c1nc(C(=O)N[C@@H](Cc2ccccc2)C[C@H](C)C(=O)OC)cs1)C(C)C (some centres undefined)
inactive

Test call for this compound, please: S=c1ssnc1-c1cc2ccccc2o1
inactive

----------
Listed here are molecules together with their documented TGI.
test system: SK-OV-3 ovarian; experiment: NCI tumour cell line growth inhibition, 48 h

Guide cases for TGI, answers given:
INSERT INTO assay_data (molecule, experimentaltarget, assaymetric, assayvalue) VALUES
  ('Nc1ccc(CC[C@H]2CCC/C=C/[C@@H]3C[C@H](O)C[C@H]3[C@H](O)/C=C/C(=O)O2)cc1', 'SK-OV-3 ovarian', 'TGI', '> 100 µM'),
  ('COC(=O)c1ccccc1CC1Cc2c(C)ccc(C)c2C1=O (centres undefined)', 'SK-OV-3 ovarian', 'TGI', '> 100 µM'),
  ('Oc1c(Br)cc2c(c1Br)-c1c(c(O)c3c4c1=NCCC=4C=N3)NCC2', 'SK-OV-3 ovarian', 'TGI', '54.8 µM'),
  ('NC(=NCCCCCCN=C(N)/N=C(\N)Nc1ccc(Cl)cc1)/N=C(\N)Nc1ccc(Cl)cc1', 'SK-OV-3 ovarian', 'TGI', '5.54 µM'),
  ('Cn1cc(-c2cc(-c3cn(C)c4ccccc34)[nH]n2)c2ccccc21', 'SK-OV-3 ovarian', 'TGI', '> 100 µM'),
  ('CC(=O)O[C@H]1[C@@H](N2CCOCC2)C[C@H]2[C@@H]3CC=C4C[C@@H](N5CCCC5)CC[C@]4(C)[C@H]3CC[C@@]21C', 'SK-OV-3 ovarian', 'TGI', '> 100 µM'),
  ('C[N+](C)(CCNc1ccc(NCC[N+](C)(C)Cc2ccc([N+](=O)[O-])cc2)c2c1C(=O)c1c(O)ccc(O)c1C2=O)Cc1ccc([N+](=O)[O-])cc1', 'SK-OV-3 ovarian', 'TGI', '> 50 µM'),
  ('CC1(C)CC(O)CC(C)(C)N1O', 'SK-OV-3 ovarian', 'TGI', '> 100 µM');

Bench note: what TGI did CC(C)(C)N/N=C(/Cc1nc2c3c(ccc2[nH]c1=O)C(=O)c1ccccc1C3=O)C(=O)NC1=C(Cl)C(=O)c2ccccc2C1=O show?
> 100 µM

Bench note: what TGI did CCCC(=O)Nc1cc(C(=O)N2C[C@H]3C[C@@]34C2=CC(=O)c2[nH]cc(C)c24)n(COC)c1 show?
5.36 µM

Bench note: what TGI did COc1cccc(NC(=O)CC(=O)NN)c1 show?
> 100 µM

Bench note: what TGI did N[C@@H]1CCCN(c2c(Br)cnc3[nH]cc(NC(=O)C4CC4)c23)C1 show?
> 100 µM

Bench note: what TGI did C=C1C(=O)OC2CC(C)C(/C=C/C(C)=O)=CCC12 (centres undefined) show?
> 100 µM
